System: RXRa DBDmut IVT, anti-RXR (DBD mutation: RXRa K156A/R161A, NR concentration 90 nM)
Experiment: PBM binding z-score (relative to random genomic background probes); higher = stronger binding; sequences stand for … in GC…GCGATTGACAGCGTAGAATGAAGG
Category | rule: reported PBM binding z-score within range, see small value: < 0.2; mid value: ≥ 0.2 and < 0.8; large value: ≥ 0.8

sequence chain	assay system	cat
TTACCTAGGTGAGCTGAGGTCGTTGATCCAACTC	RXRa DBDmut IVT, anti-RXR (DBD mutation: RXRa K156A/R161A, NR concentration 90 nM)	small value
CAGCCTAGGTCACGGCCAGTATAGGAGGAACGTT	RXRa DBDmut IVT, anti-RXR (DBD mutation: RXRa K156A/R161A, NR concentration 90 nM)	large value
ATTAGCAGGCCAAGTTTGGGTCACTCAAACAAAG	RXRa DBDmut IVT, anti-RXR (DBD mutation: RXRa K156A/R161A, NR concentration 90 nM)	small value
TCATATAGGGAAAGGTGAAAGTCGAACGATATGA	RXRa DBDmut IVT, anti-RXR (DBD mutation: RXRa K156A/R161A, NR concentration 90 nM)	large value
CGAACTAGGTCAGTACAGGACAGTGAAGGATGAT	RXRa DBDmut IVT, anti-RXR (DBD mutation: RXRa K156A/R161A, NR concentration 90 nM)	mid value
TCATATAGGTAAAGGTGTAAGTCGAACGATATGA	RXRa DBDmut IVT, anti-RXR (DBD mutation: RXRa K156A/R161A, NR concentration 90 nM)	mid value
ATATGTAGGTTAAGGGTCAGTCAGGTTGGTTCGC	RXRa DBDmut IVT, anti-RXR (DBD mutation: RXRa K156A/R161A, NR concentration 90 nM)	large value
CCGACTGGGGCACAGGTTACCATACTCAGTACGA	RXRa DBDmut IVT, anti-RXR (DBD mutation: RXRa K156A/R161A, NR concentration 90 nM)	small value
CCAGATAGGTGAAAGGTAACTCAGTCTGGTACGC	RXRa DBDmut IVT, anti-RXR (DBD mutation: RXRa K156A/R161A, NR concentration 90 nM)	small value
TAATATAGGTAAACAGGTGAAAGTCCGTAAGTTA	RXRa DBDmut IVT, anti-RXR (DBD mutation: RXRa K156A/R161A, NR concentration 90 nM)	small value
CCTATTGGGCCACGAAAGGTCATTGATTCAGTGA	RXRa DBDmut IVT, anti-RXR (DBD mutation: RXRa K156A/R161A, NR concentration 90 nM)	mid value
TAGCCTAGCTCATGGGCCAGTATACCACGCGAAC	RXRa DBDmut IVT, anti-RXR (DBD mutation: RXRa K156A/R161A, NR concentration 90 nM)	small value
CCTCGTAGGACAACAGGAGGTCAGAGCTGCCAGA	RXRa DBDmut IVT, anti-RXR (DBD mutation: RXRa K156A/R161A, NR concentration 90 nM)	mid value
CGTGCAAGGTCATAGGAGGTCAGTGAAGACAGAT	RXRa DBDmut IVT, anti-RXR (DBD mutation: RXRa K156A/R161A, NR concentration 90 nM)	large value
GCCTATAGGTAATACAAGGTGAAAGTCCGATTGT	RXRa DBDmut IVT, anti-RXR (DBD mutation: RXRa K156A/R161A, NR concentration 90 nM)	small value
CGTCCAAGGTCAGAGAGGTCAGTGAGTGCCGAGT	RXRa DBDmut IVT, anti-RXR (DBD mutation: RXRa K156A/R161A, NR concentration 90 nM)	large value
TGACAAAGTTCAAAGGTAACGTAAGTATCCACAC	RXRa DBDmut IVT, anti-RXR (DBD mutation: RXRa K156A/R161A, NR concentration 90 nM)	large value
CAAACTAGGGCAAGGTCAAAGTCGGTTTGTGCCA	RXRa DBDmut IVT, anti-RXR (DBD mutation: RXRa K156A/R161A, NR concentration 90 nM)	large value
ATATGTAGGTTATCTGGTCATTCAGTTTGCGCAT	RXRa DBDmut IVT, anti-RXR (DBD mutation: RXRa K156A/R161A, NR concentration 90 nM)	large value
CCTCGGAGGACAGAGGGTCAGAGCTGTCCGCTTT	RXRa DBDmut IVT, anti-RXR (DBD mutation: RXRa K156A/R161A, NR concentration 90 nM)	small value
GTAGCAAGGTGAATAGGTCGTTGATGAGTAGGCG	RXRa DBDmut IVT, anti-RXR (DBD mutation: RXRa K156A/R161A, NR concentration 90 nM)	small value
CCTATTAGTTGGCCATAAGGGCAACCGAAGCTCG	RXRa DBDmut IVT, anti-RXR (DBD mutation: RXRa K156A/R161A, NR concentration 90 nM)	mid value
CCAGACAGTTGAAAGGTAACTCAGTCTGGTACGC	RXRa DBDmut IVT, anti-RXR (DBD mutation: RXRa K156A/R161A, NR concentration 90 nM)	mid value
CGTCCAACGTCAAAGGTCAGTGAAGAGATGACGG	RXRa DBDmut IVT, anti-RXR (DBD mutation: RXRa K156A/R161A, NR concentration 90 nM)	mid value
TGAAGGAGGTTAAAGATCAGGGAACGTGGCGTCG	RXRa DBDmut IVT, anti-RXR (DBD mutation: RXRa K156A/R161A, NR concentration 90 nM)	small value
TCTTGAAGATCAAGCAGGTTAAGAAAGCCTGAGT	RXRa DBDmut IVT, anti-RXR (DBD mutation: RXRa K156A/R161A, NR concentration 90 nM)	mid value

These measurements were taken from the supplement of paper PMC6555819.
